System: C. difficile
Assay: Antibacterial activity against Clostridium difficile, agar medium dilution MIC (CLSI)
Assay type: cell-based
Conditions: Clostridioides difficile, ATCC43255, C. difficile ATCC 43255; read-out: MIC
Please respond with reported MIC for every item in the list.

Take a look at these entries with their results.
- molecule: "CN[C@H](CC(C)C)C(=O)N[C@H]1C(=O)N[C@@H](CC(N)=O)C(=O)N[C@H]2C(=O)N[C@H]3C(=O)N[C@H](C(=O)N[C@H](C(=O)O)c4cc(O)cc(O)c4-c4cc3ccc4O)[C@H](O)c3ccc(c(Cl)c3)Oc3cc2cc(c3O[C@@H]2O[C@H](CO)[C@@H](O)[C@H](O)[C@H]2O[C@H]2C[C@](C)(N)[C@H](O)[C@H](C)O2)Oc2ccc(cc2Cl)[C@H]1O"
  measured attribute: "MIC"
  result: "1 µg/mL"
- molecule: "C/C=C(\\NC(=O)c1csc(-c2csc(-c3ccc4c(n3)-c3csc(n3)[C@H]([C@@H](C)O)NC(=O)c3csc(n3)[C@H](C(C)C)NC(=O)c3csc(n3)/C(=C/C)NC(=O)[C@H]([C@@H](C)O)NC(=O)c3csc-4n3)n2)n1)C(=O)NCC(C)=O [Micrococcin P2]"
  measured attribute: "MIC"
  result: "2 µg/mL"
- molecule: "COc1c(N2C[C@@H]3CCCN[C@@H]3C2)c(F)cc2c(=O)c(C(=O)O)cn(C3CC3)c12"
  measured attribute: "MIC"
  result: "2 µg/mL"

Consider the record given below.
*Q* Write down MIC measured for item Cc1ncc([N+](=O)[O-])n1CCO
*A* 2 µg/mL
